# assayNotes: Human HepG2 cell viability assay in 384 well format
# Type: toxicity, cell-based
# Design: dose 125 nL, time 70.5 hour; concentration not given beside the values
# assayConditions: HepG2 cells, read-out: Inhibition
// reported cytotoxicity at 70.5 h per item
Entry rule: numbers only, all in %.

Consider the reported cytotoxicity at 70.5 h for these molecules:
- CC(C)C(C(=O)N1CCC(N(C)c2cccnn2)CC1)n1cncn1 (centres undefined): -12.6
- O=C(NC[C@H]1OC[C@@H]2CN(Cc3ccco3)CC[C@@H]21)c1cscn1: 0.732
- Cn1nnnc1SCCC(=O)NCC1Cc2ccccc2O1 (centres undefined): -23.7
- Cc1nc(C)n(CC2CN(Cc3nc4ccccc4s3)CCO2)n1 (centres undefined): 18.9
- O=C(NCc1ccc2c(c1)OCO2)[C@@H]1C=CCN1c1ncccn1: -1.63

// CC(=O)c1csc(-c2csc(Cn3ccc(=O)[nH]c3=O)n2)c1 : cytotoxicity at 70.5 h value = 4.03
